Catalogue of molecules with associated GI50
Tested on: U-251
Assay: NCI tumour cell line growth inhibition, 48 h
Counter-ions that a name gives are not always drawn. Calls of active or inactive are those of the source. Cut-off read from the data, not from the text of the source: active = GI50 up to about 1.1 µM and inactive = higher.

Some entries whose results are on file:
- molecule: "NCCCCNCCCN [SPERMIDINE TRIHYDROCHLORIDE]"
  endpoint-value: "> 100 µM (inactive)"
- molecule: "CSC1=C(C#N)C(=O)N(c2ccc(C)cc2)C(=S)C1C#N (stereo unspecified)"
  endpoint-value: "> 100 µM (inactive)"
- molecule: "O=C(N/C(=C\\c1cccc([N+](=O)[O-])c1)c1nc2c(O)nc(S)nc2[nH]1)c1ccccc1"
  endpoint-value: "> 100 µM (inactive)"
- molecule: "O=C(CNc1ccc([N+](=O)[O-])cc1)Nn1c(-c2ccccc2)nc2ccccc2c1=O"
  endpoint-value: "1.95 µM (inactive)"
- molecule: "COc1cccc2cc(C(=O)O)c(=O)oc12"
  endpoint-value: "> 100 µM (inactive)"
- molecule: "O=C1/C(=C\\c2ccco2)Oc2ccccc21"
  endpoint-value: "> 100 µM (inactive)"
- molecule: "C/C(N)=C/C(=O)c1[nH]c(C(=O)O)cc1C1CCN(Cc2ccccc2)C1=O (stereo unspecified)"
  endpoint-value: "39.6 µM (inactive)"
- molecule: "COc1ccc2c(c1)[C@@H]1c3cc(OC)c(OC)cc3CCN1CCC2"
  endpoint-value: "> 100 µM (inactive)"

The molecule identified as CCOC(=O)C1([Se]c2ccccc2)CCCC1=O (stereo unspecified) registered its GI50 at 9.95 µM (inactive)

The molecule identified as C[Si](C)(OCCS(=O)(=O)O)C1(Cc2cccc3ccccc23)S(=O)(=O)OCCOS1(=O)=O registered its GI50 at 20.3 µM (inactive)

The molecule identified as O=C1c2ccccc2C(=O)c2sc(Nc3ccc(Cl)cc3)nc21 registered its GI50 at 1.62 µM (inactive)

* * *

Test system: HL-60
Experiment: NCI tumour cell line growth inhibition, 48 h
Calls of active or inactive are those of the source. Rule as the data show it: active = GI50 up to about 1.1 µM and inactive = higher.
Classes to choose from: y = active, n = inactive

- molecule: "CC1OC(OC2C(O[C@H]3CC[C@@H]4C(=CC[C@@H]5[C@@]4(C)C(=O)C[C@]4(C)[C@@H]([C@H](C)CC[C@@H](O)C(C)(C)O)CC[C@@]54C)C3(C)C)OC(CO)C(O)C2O)C(O)C(O)C1O (some centres undefined)"
  assigned-category: "n"
- molecule: "O=C1C=C2S[C@H]3C[C@]2(C=C1Br)C1=C(N3)C(=O)c2[nH]cc3c2C1=NCC3 [(+)-DISCORHABDIN B]"
  assigned-category: "y"
- molecule: "N#CC(=C1CCN(CCCC(=O)c2ccc(F)cc2)CC1)c1ccccc1"
  assigned-category: "n"

Kindly consider the entry below.
[Q] Name the outcome recorded for NC(=O)CC(N)C(N)=O (centres undefined) in the assay.
[A] n

* * *

Tested on: DMS-114
Assay: NCI tumour cell line growth inhibition, 48 h
Active and inactive are the calls of the source. Cut-off read from the data, not from the text of the source: active = GI50 up to about 1.1 µM and inactive = higher. Non-standard residues stand in square brackets, D forms with d. Residues, ends and D or L forms follow the SMILES beside them. ξ: configuration not given here. *: point of attachment. X18 = COC1=CC(=O)N(C(=O)C(O*)C(C)C)C1Cc1ccccc1; ξNMe2Val = CC(C)C(C(=O)*)N(C)C; NMeV = CN[CH](C(=O)O)C(C)C
Classes to choose from: active, inactive

Answered cases to consult:
- molecule: "CCN(CC)CCCNC(=O)c1ccc([N+](=O)[O-])cc1O"
  assigned-category: "inactive"
- molecule: "O=C(N/N=C/c1cccc(F)c1)c1ccncc1"
  assigned-category: "inactive"
- molecule: "O=C1OC(c2ccccc2)=N/C1=C/N1CCCC1C(=O)O (centres undefined)"
  assigned-category: "inactive"
- molecule: "CC1(C)COC(c2ccc(C(F)(F)F)cc2C(O)c2ccc3ccccc3c2)=N1 (centres undefined)"
  assigned-category: "inactive"
- molecule: "COc1ccc(OC)c2cc(C3(C)SCCCS3)ccc12"
  assigned-category: "inactive"
- molecule: "COC1=CC(=O)N(C(=O)C(OC(=O)C2CCCN2C(=O)C2CCCN2C(=O)C(C(C)C)N(C)C(=O)C(NC(=O)C(C(C)C)N(C)C)C(C)C)C(C)C)C1Cc1ccccc1 (centres undefined) (ξNMe2Val-V[NMeV]PP-X18; configuration not given here)"
  assigned-category: "active"

[Q] Name the outcome recorded for Cc1ccccc1/C=C/C(=O)c1ccccc1 in the assay.
[A] inactive

[Q] Name the outcome recorded for CC1=NN(C(=O)CC(=O)Nc2ccccc2F)C(=O)C1/N=N/c1ccccc1[N+](=O)[O-] (centres undefined) in the assay.
[A] inactive

[Q] Name the outcome recorded for Cc1ccc(S(=O)(=O)N/N=C(/CC(=O)c2c(C)[n+]([O-])c3ccccc3[n+]2[O-])C(=O)Nc2ccc(C)c(C)c2)cc1 in the assay.
[A] inactive

* * *

Catalogue of molecules with associated GI50
Tested on: HT-29
Experiment: NCI tumour cell line growth inhibition, 48 h
Activity calls are given as the source filed them. Cut-off read from the data, not from the text of the source: active = GI50 up to about 1.1 µM and inactive = higher.

Some entries whose results are on file:
- molecule: "CCCCCCCCCCCCOCC(COP(=O)(O)OCCN=[N+]=[N-])OC(=O)CCCCCCCCCCC (stereo unspecified)"
  readout: "GI50"
  endpoint-value: "> 100 µM (inactive)"
- molecule: "OCCN1CN(c2nc(N3CN(CCO)C3)nc(N3CN(CCO)C3)n2)C1"
  readout: "GI50"
  endpoint-value: "25.5 µM (inactive)"
- molecule: "Cc1ccc(CC2(OCCN(C)C)CCC(C(C)(C)C)CC2)cc1 (stereo unspecified)"
  readout: "GI50"
  endpoint-value: "2.23 µM (inactive)"
- molecule: "O=[N+]([O-])/C(C(Cl)=C(Cl)Cl)=C(\\SCc1ccccc1)N1CCCCC1"
  readout: "GI50"
  endpoint-value: "36.6 µM (inactive)"
- molecule: "Cc1ccc(/C=N/Nc2cc(C)c3cccc(C)c3n2)s1"
  readout: "GI50"
  endpoint-value: "2.86 µM (inactive)"

Attention now turns to another entry.
The molecule identified as COc1cc2c[n+](C)c3c4cc(OC)c(OC(C)C)cc4ccc3c2cc1OC registered its GI50 at 49.3 µM (inactive)

* * *

Catalogue of compounds with associated GI50
Tested on: DU-145
Test: NCI tumour cell line growth inhibition, 48 h
Calls of active or inactive are those of the source. Cut-off read from the data, not from the text of the source: active = GI50 up to about 1.1 µM and inactive = higher.

Some entries whose results are on file:
- compound: "O=[N+]([O-])c1ccc(Cl)cc1-n1nc(-c2ccccc2)cc1-c1ccccc1"
  target-desc: "DU-145"
  GI50: "> 100 µM (inactive)"
- compound: "O=c1[nH]nc(NCc2ccccc2)c2nnn(Cc3ccccc3)c12"
  target-desc: "DU-145"
  GI50: "> 100 µM (inactive)"
- compound: "Cc1ccc(Nc2nc3[nH]ccc3c(=O)[nH]2)cc1"
  target-desc: "DU-145"
  GI50: "53.6 µM (inactive)"
- compound: "CN(CCCN(C)Cc1ccc(Cl)c(Cl)c1)CCN1CCCC1"
  target-desc: "DU-145"
  GI50: "62.1 µM (inactive)"
- compound: "CN(CCCCCl)P(=O)(OCc1ccc([N+](=O)[O-])o1)OCC1OC(n2ccc(N)nc2=O)C(O)C1O (stereo not drawn)"
  target-desc: "DU-145"
  GI50: "6.93 µM (inactive)"
- compound: "CN(CC1(CO)CCC1)c1cc(Cl)nc(N)n1"
  target-desc: "DU-145"
  GI50: "> 100 µM (inactive)"

The compound identified as CCCCn1c(CSc2ccc(Cl)cc2)c(C(=O)OCC)c2cc(OC)c(Br)cc21 registered its GI50 at > 100 µM (inactive)

* * *

Tested on: MCF7
Test: NCI tumour cell line growth inhibition, 48 h
Counter-ions that a name gives are not always drawn. Active and inactive are the calls of the source. No stated cut-off is given here; in the data, active = GI50 up to about 1.1 µM and inactive = higher.
Classes to choose from: true (active), false (inactive)

- molecule: "OC[C@H]1NC[C@@H](O)[C@@H](O)[C@H]1O"
  assigned-category: "false"
- molecule: "O=[N+]([O-])c1ccc(Cl)cc1-n1nc(-c2ccccc2)cc1-c1ccccc1"
  assigned-category: "false"
- molecule: "C=CCN(c1cc(OCc2ccccc2)c2c(c(C)cn2S(=O)(=O)c2ccc([N+](=O)[O-])cc2)c1[N+](=O)[O-])S(C)(=O)=O"
  assigned-category: "false"
- molecule: "O/N=C1/CCCc2nonc21"
  assigned-category: "false"
- molecule: "Cc1ccc(S(=O)(=O)/N=C2/N(C)CCCS2(=O)=O)cc1"
  assigned-category: "false"
- molecule: "O=C(O)C1C(C(=O)O)C23CC2(C(=O)O)C2(C(=O)O)CCC3=C3CCCC312 (centres undefined)"
  assigned-category: "false"
- molecule: "CN(C)c1ccc(C(=O)NCCCCCCC(=O)NO)cc1"
  assigned-category: "true"
- molecule: "CN1C[C@H](C(=O)N[C@]2(C)O[C@@]3(O)[C@@H]4CCCN4C(=O)[C@H](Cc4ccccc4)N3C2=O)C=C2c3cccc4[nH]cc(c34)C[C@H]21 [ERGOTAMINE TARTRATE]"
  assigned-category: "false"

Kindly consider the entry below.
[Q] Name the outcome recorded for CSc1nc(C)cc(Nc2ccc(O)c(CN3CCOCC3)c2)n1 in the assay.
[A] false
